Record form. Attribute: Test A disease control rating (100 = 100% disease control, 0 = no disease control). Fill in for each entry.
# System: Eiysiphe graminis f. sp. tritici
# Test protocol: Test A: wheat powdery mildew, preventive spray on wheat seedlings
# Format: in vivo
# Experimental parameters: wheat seedlings sprayed to run-off, inoculated the following day; rating relative to controls; unmarked compounds (standard test rate)
One number for each entry, in %.

The following molecules have reported results that may help.
# Molecule, Recorded measurement
rows = [
    ("C=CCc1ccccc1OCC(C)NC(=O)C1(C)CC1(Cl)Cl (mixture of isomers)", 0),
    ("CC(C=Cc1ccc(F)cc1F)NC(=O)C(C#N)C(C)(C)C (mixture of isomers)", 86),
    ("C#CC(C)(C=C)C(C#N)C(=O)NC(C)COc1cc(Cl)ccc1F (mixture of isomers)", 0),
    ("C=CC(C)(CF)C(C#N)C(=O)NC(C)COc1cc(F)ccc1Cl (mixture of isomers)", 0),
    ("Cc1ccc(Cl)c(OCC(C)NC(=O)C(C#N)C(C)(C=CF)CF)c1 (mixture of isomers)", 0),
]

Each molecule below has a recorded value; state its Test A disease control rating (100 = 100% disease control, 0 = no disease control).
1. CCC1(C(=O)NC(C)COc2c(F)ccc(F)c2F)C(C)C1(Cl)Cl (stereo not drawn)
2. C=CCC(C#N)C(=O)NC(C)C(Oc1ccccc1C#N)c1ccccc1 (mixture of isomers)
3. CC(C=Cc1cc(F)ccc1F)NC(=O)C(C#N)C(C)(C)C (single isomer, unassigned) [229a]
4. CCC1(C(=O)NCC=C(C)c2ccccc2)C(C)C1(Cl)Cl (stereo not drawn)

Reply |
1: 62; 2: 59; 3: 0; 4: 38

For each of the molecules below, state Test A disease control rating (100 = 100% disease control, 0 = no disease control).
1. CCC1(C(=O)NC(C)COc2cc(F)ccc2Cl)C(C)C1(Cl)Cl (stereo not drawn)
2. CC(COc1cc(F)ccc1OC(F)F)NC(=O)C(C#N)C(C)(C)C (mixture of isomers)

Reply |
1: 59; 2: 0

---

For each entry below, report its Test C disease control rating (100 = 100% disease control, 0 = no disease control) value.
# Test system: Pyricularia oryzae
# Format: in vivo
# Experimental parameters: rice seedlings sprayed to run-off, inoculated the following day; rating relative to controls; unmarked compounds (standard test rate)
Numbers only, in %.

Examples with their reported Test C disease control rating (100 = 100% disease control, 0 = no disease control) follow.
# Compound, Units, Recorded measurement
rows = [
    ("CC(C)C(C#N)C(=O)NC(C)C(Oc1ccccc1C#N)c1ccccc1 (mixture of isomers)", "%", 90),
    ("C#Cc1ccccc1OCC(C)NC(=O)C(C#N)C(C)(C)C (mixture of isomers)", "%", 99),
    ("CC(COc1ccccc1C(F)(F)F)NC(=O)C1(C)CC1(Cl)Cl (mixture of isomers)", "%", 0),
]

For the 6 compounds below, give their Test C disease control rating (100 = 100% disease control, 0 = no disease control) values.
1. CCC1(C(=O)NC(C)COc2c(F)cccc2C#N)C(C)C1(Cl)Cl (mixture of isomers)
2. CCC1(C(=O)NC(C)COc2c(F)c(F)cc(F)c2F)C(C)C1(Cl)Cl (stereo not shown)
3. C=CC(C)(CC)C(C#N)C(=O)NC(C)COc1cc(F)ccc1Cl (mixture of isomers)
4. CCC1(C(=O)NC(C)COc2cc(F)c(F)cc2C#N)C(C)C1(Cl)Cl (mixture of isomers)
5. CCC(C#N)C(=O)N[C@H](C)[C@H](Oc1cc(F)ccc1F)c1ccccc1 (stereo partly shown)
6. CC(COc1cc(C(C)(C)C)ccc1C#N)NC(=O)C(C#N)C(C)(C)C (mixture of isomers)

Reply |
1: 53; 2: 94; 3: 99; 4: 0; 5: 100; 6: 53

// for each compound below, give its Test C disease control rating (100 = 100% disease control, 0 = no disease control)
1. CCC(=CCNC(=O)C1(CC)C(C)C1(Cl)Cl)c1cc(Cl)ccc1Cl (stereo not shown)
2. CC(COc1cc(Cl)ccc1F)NC(=O)C(C#N)C(C)(C)C=CF (mixture of isomers)

Reply |
1. 53
2. 100

Okay, here is my list. What is Test C disease control rating (100 = 100% disease control, 0 = no disease control) for each of these?
1. C#CC(C)(C)C(C#N)C(=O)NC(C)COc1cc(F)ccc1OC(F)F (mixture of isomers)
2. CCCC(C#N)C(=O)NC(C)C(Oc1cc(F)ccc1C#N)c1ccccc1 (mixture of isomers)
3. C=CC(C)(C)C(C#N)C(=O)N[C@H](C)COc1cc(Cl)ccc1Cl (single isomer, unassigned) [215a]
4. C[C@H](COc1cc(F)ccc1F)NC(=O)C(C#N)C(C)(C)C=CF (single isomer, unassigned) [221b]
5. CCC1(C(=O)NCC(C)=Cc2cc(Cl)ccc2Cl)C(C)C1(Cl)Cl (stereo not shown)

Reply |
1. 100
2. 97
3. 99
4. 100
5. 91

---

# Tested on: Eiysiphe graminis f. sp. tritici
# Test protocol: Test A: wheat powdery mildew, preventive spray on wheat seedlings
# Assay type: in vivo
# Experimental parameters: wheat seedlings sprayed to run-off, inoculated the following day; rating relative to controls; unmarked compounds (standard test rate)
Please mark 1.0 if the recorded Test A disease control rating (100 = 100% disease control, 0 = no disease control) is equal to or greater than 40%, and 0.0 if it falls below.

Below are worked cases with known answers.
# Molecule, Measurement target, Category
records = [
    ("CCC1(C(=O)NC(C)COc2cc(OC(F)F)ccc2C#N)C(C)C1(Cl)Cl (mixture of isomers) [compound 256]", "Eiysiphe graminis f. sp. tritici", 1.0),
    ("C=CC(C)(C)C(C#N)C(=O)N[C@H](C)COc1cc(Cl)ccc1Cl (single isomer, unassigned) [215a]", "Eiysiphe graminis f. sp. tritici", 1.0),
    ("CCC1(C(=O)NC(C)COc2c(F)cc(F)cc2F)C(C)C1(Cl)Cl (stereo not shown) [compound 237]", "Eiysiphe graminis f. sp. tritici", 1.0),
    ("CCc1cccc(OCC(C)NC(=O)C2(CC)C(C)C2(Cl)Cl)c1 (stereo not shown) [compound 240]", "Eiysiphe graminis f. sp. tritici", 1.0),
]

Ask | Decide: is the reported value of Test A disease control rating (100 = 100% disease control, 0 = no disease control) for CC(COc1cc(C(C)(C)C)ccc1C#N)NC(=O)C(C#N)C(C)(C)C (mixture of isomers) [compound 305] equal to or greater than 40%?
Reply | 0.0

Ask | Check the entry CC(C=Cc1ccccc1C#N)NC(=O)C(C#N)C(C)(C)C (mixture of isomers) [compound 307] : does Test A disease control rating (100 = 100% disease control, 0 = no disease control) equal or exceed 40%?
Reply | 0.0

Ask | Tell me whether Test A disease control rating (100 = 100% disease control, 0 = no disease control) is at least 40% here: CCC(C#N)C(=O)N[C@H](C)[C@H](Oc1ccccc1C#N)c1ccccc1 (stereo partly shown) [compound 304]
Reply | 0.0

Ask | Given CC(C)(C)C(C#N)C(=O)NC/C=C/c1ccc(Cl)cc1Cl (racemic) [compound 274] , state whether its Test A disease control rating (100 = 100% disease control, 0 = no disease control) is at least 40%.
Reply | 1.0

Ask | Threshold query (Test A disease control rating (100 = 100% disease control, 0 = no disease control) >= 40%) on CCC(C)c1ccccc1OCC(C)NC(=O)C(C#N)C(C)(C)C (mixture of isomers) [compound 306]
Reply | 0.0

Ask | Does the reported Test A disease control rating (100 = 100% disease control, 0 = no disease control) for CCC(=CCNC(=O)C1(CC)C(C)C1(Cl)Cl)c1ccccc1 (stereo not shown) [compound 269] fall at or above the 40% mark?
Reply | 1.0

---

Give Test C disease control rating (100 = 100% disease control, 0 = no disease control) for every item shown.
# System: Pyricularia oryzae
# Type: in vivo
# Experimental parameters: rice seedlings sprayed to run-off, inoculated the following day; rating relative to controls; unmarked compounds (standard test rate)
Answers are plain numbers, in %.

Worked cases, answers included:
# Compound, Recorded measurement
measured = [
    ("CCC1(C(=O)NCC(C)=Cc2ccccc2)C(C)C1(Cl)Cl (stereo not drawn)", 91),
    ("CCC1(C(=O)NC(C)COc2ccc(F)c(F)c2F)C(C)C1(Cl)Cl (stereo not drawn)", 74),
    ("Cc1ccc(Cl)c(OCC(C)NC(=O)C(C#N)C(C)(C=CF)CF)c1 (mixture of isomers)", 100),
]

Please report Test C disease control rating (100 = 100% disease control, 0 = no disease control) for every entry that follows.
1. CC(C)(C)C(C#N)C(=O)NC/C=C/c1ccc(Cl)cc1Cl (racemic)
2. CCC1(C(=O)NC(C)COc2c(Cl)cccc2C#N)C(C)C1(Cl)Cl (mixture of isomers)
3. CC(C=Cc1ccc(F)cc1F)NC(=O)C(C#N)C(C)(C)C (mixture of isomers)
4. CC(NC(=O)C(C#N)C(C)(C)C)C(Oc1ccccc1C#N)c1ccccc1 (mixture of isomers)
5. C=CC(C)(C)C(C#N)C(=O)NC(C)COc1cc(C)ccc1F (mixture of isomers)
6. CCC1(C(=O)NC(C)COc2ccc(F)c(Cl)c2)C(C)C1(Cl)Cl (stereo not drawn)

Reply |
[74, 74, 91, 90, 100, 100]
